Experimental Target: glycoprotein B of HSV-1 (gB-1) (Human herpesvirus 1, UniProt P10211)
Assay Details: Luminex multiplex assay, binding to gB-1
Measurement Setup: Table 3 summary

Molecule	Target antigens
HSV010-6: gB-1 specific mouse monoclonal IgG; IgH SEQ ID NO: 44, IgL SEQ ID NO: 46 (antibody, V domains shown, HSV010-6 heavy chain; HSV010-6 light chain) VH: QVQLQQPGAELVKPGASVKLSCKASGYTFTNYWIHWVKQRPGQGLEWIGMIHPNIGITHYSERFKSKATLTVDKSSTTAYMQLSSLTSEDSAVYYCARGSDSGSAWFAYWGQGTLVTVSAA VL: DIQMTQSSSYLSVSLGGRVTITCKASDHINNWLAWYLQKPGNAPRLLMSGATSLETGVPSRFSGSGSGKDYTLSITSLQTEDVATYYCQQYWSTPLTFGAGTKLELKR	gB

Numbers sourced from patent US12459987B2.
